- system tested: T1, recombinant human Trop-2-his protein (ACCESSION NO.: NP_002344.2, AA 1-274) (human, UniProt P09758 27-274)
- T1 construct: range 27-274; also called recombinant human Trop-2 protein; recombinant human Trop-2 extracellular domain; not shown: his tag
- T1 sequence (looked up): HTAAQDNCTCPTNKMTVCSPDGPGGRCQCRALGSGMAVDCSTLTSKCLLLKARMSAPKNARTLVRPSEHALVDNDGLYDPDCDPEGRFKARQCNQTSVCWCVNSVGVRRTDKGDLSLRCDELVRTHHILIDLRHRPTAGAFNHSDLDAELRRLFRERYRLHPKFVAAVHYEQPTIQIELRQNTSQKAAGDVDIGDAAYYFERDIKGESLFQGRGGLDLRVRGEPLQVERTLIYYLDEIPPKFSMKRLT
- measurement protocol: BLI, antibody on AHC sensor, Trop-2-his 60 nM
Each entry below lists one item and its recorded Kd value.
Numeric answer plus unit only.

binder: h4-3-10 (antibody, human IgG1, kappa, V domains shown) VH: EVQLVQSGPEVKKPGASVKVSCKASGFTFTDYVIGWVRQAPGQGLEWIGEIYLGSGTIYYAEKFKGRVTMTADTSTSTAYMELSSLRSEDTAVYYCARGSIFPFDYWGQGTLVTVSS VL: DIQLTQSPSSLSASVGDRVTITCSASSSVSYMYWYQQKPGKAPKLLIYDASTLASGVPSRFSGSGSGTDFTLTISSLQPEDFATYYCQQWSSYPYTFGQGTKLEIKR
measured property: Kd
result: 0.763 nM
--
binder: h4-3-20 (antibody, human IgG1, kappa, V domains shown) VH: EVQLVQSGPEVKKPGASVKVSCKASGFTFTDYVIGWVRQAPGQGLEWIGEIYLGSGTIYYTEKFKGRVTMTADTSTSTAYMELSSLRSEDTAVYYCARGSIFYFDYWGQGTLVTVSS VL: DIQLTQSPSSLSASVGDRVTITCSASSSVSYMYWYQQKPGKAPKLLIYDTSTLASGVPSRFSGSGSGTDFTLTISSLQPEDFATYYCQQWNSYPYTFGQGTKLEIKR
measured property: Kd
result: 0.892 nM

Now for another entry.
Data request: Fill in the blank: the reported Kd of h4-3-1 (antibody, human IgG1, kappa, V domains shown, also called CDR grafted antibody 4-3) VH: EVQLVQSGPEVKKPGASVKVSCKASGFTFTDYVIGWVRQAPGQGLEWIGEIYLGSGTIYYTEKFKGRVTMTADTSTSTAYMELSSLRSEDTAVYYCARGSIFPFDYWGQGTLVTVSS VL: DIQLTQSPSSLSASVGDRVTITCSASSSVSYMYWYQQKPGKAPKLLIYDTSTLASGVPSRFSGSGSGTDFTLTISSLQPEDFATYYCQQWSSYPYTFGQGTKLEIKR is ____.
Data returned: 0.304 nM
